Quick record: pIC50, Hepatocyte growth factor receptor (Homo sapiens, UniProt P08581).
For clarity, pIC50 is expressed as the negative log10 of concentration in mol/L.

{"columns": ["Compound", "pIC50"],
 "data": [
  ["O=C(O[C@@H]1Cc2c(O)cc(O)cc2O[C@@H]1c1ccc(O)c(O)c1)c1cc(O)c(O)c(O)c1 [EPICATECHIN GALLATE]", 5.00],
  ["O=C(O[C@@H]1Cc2c(O)cc(O)cc2O[C@H]1c1cc(O)c(O)c(O)c1)c1cc(O)c(O)c(O)c1 [GALLOCATECHIN GALLATE]", 5.00]
]}

Now let's try a different one.
Entry O=C(O[C@@H]1Cc2c(O)cc(O)cc2O[C@@H]1c1cc(O)c(O)c(O)c1)c1cc(O)c(O)c(O)c1 [EPIGALOCATECHIN GALLATE] ; assay system Hepatocyte growth factor receptor (Homo sapiens, UniProt P08581); pIC50 recorded at 5.00

---

- System: Mus musculus
- Run description: Plasma concentration in po dosed mouse
- Format: ADME, organism-based
- Details: in vivo
Metric: concentration (µM)
Give the value in µM but do not write µM after it.

# concentration (compound: O=C(O[C@@H]1Cc2c(O)cc(O)cc2O[C@@H]1c1cc(O)c(O)c(O)c1)c1cc(O)c(O)c(O)c1 [EPIGALOCATECHIN GALLATE] ) is 9
